Assay: PMA/ionomycin-induced NF-kB reporter inhibitors, Jurkat retest, confirmation, T-cell NF-kB inhibitor project, cell-based, luminescence, single concentration (AID 435020);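 further: plate controls were PMA/ionomycin stimulated DMSO wells for no effect and unstimulated DMSO wells for full effect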
Details: Jurkat NF-kB luciferase, 16 h, at 4 µM, stronger effect = higher value
The other results are listed elsewhere or left out.
observation_type: inhibition (%)
// units = %; emit number, no label

Look over these answered cases.
compound: O=C(Nc1ccc(CSc2ccccc2)cc1)c1ccc(CN2CCOCC2)cc1
inhibition [%]: 62.3
--
compound: COc1cc(N=Cc2c(O)[nH]c3ccccc23)cc(OC)c1OC
inhibition [%]: -14
--
compound: CCCOC(=O)c1[nH]c2c(c1C)C(=O)CC(c1cccs1)C2 (stereo unspecified)
inhibition [%]: 52.4
--
compound: COc1ccccc1-n1nnnc1S(=O)(=O)Cc1ccc(Cl)cc1
inhibition [%]: 26.5
--
compound: COc1ccc(-c2csc(-c3cccs3)n2)cc1OC
inhibition [%]: -54.3

What does the record list as inhibition for CCOc1ccc2[nH]c3nc(SCC(=O)NC4CCCC4)nnc3c2c1 ? 14.2

What does the record list as inhibition for CCOC(=O)c1ccc(NC(=O)Cn2cnc3cc(C)c(C)cc32)cc1 ? 66.2

What does the record list as inhibition for Cc1ccc(O)c(NC(=O)c2cc(-c3ccco3)on2)c1 ? 52.2

What does the record list as inhibition for OCCCNc1nccc(-c2cc(Nc3cccc(Cl)c3)ncn2)n1 ? 97

What does the record list as inhibition for C=C(C)C(=O)O[C@H]1C/C(C)=C\C(=O)/C=C(\C)[C@H](O)[C@@H]2OC(=O)C(=C)[C@@H]21 ? 34.6

What does the record list as inhibition for N#Cc1ccc(C2N=C(c3ccccc3)NO2)cc1 (stereo unspecified) ? -93.9

###

Experiment: HIF-1a luciferase reporter signal reduction – MiaPaCa-2 cells, single concentration, counter-screen for HIF-2a inhibitor project, confirmation (AID 651589)
Conditions: MiaPaCa-2 HIF-1a luciferase reporter, desferoxamine, overnight; at 18.8 µM; stronger effect = higher value
This is one part of the list.
observation_type: inhibition (%)
// units = %; emit number, no label

Look over these answered cases.
compound: CC1CCCCC1NC(=O)/C(C#N)=C/C=C/c1ccccc1[N+](=O)[O-] (stereo unspecified)
inhibition / %: 106
--
compound: O=C(CCl)Nc1cccc(CP(=O)(c2ccccc2)c2ccccc2)c1
inhibition / %: 51.3
--
compound: Cc1[nH]c(=O)c(C(=O)/C=C/c2ccccc2)c2c1CCCC2
inhibition / %: 105
--
compound: Clc1ccc2nc(-c3ccccc3)nc(C(Cl)Cl)c2c1
inhibition / %: 104
--
compound: CCOC(=O)C(=Cc1ccccc1)C(=O)c1ccccc1
inhibition / %: 108

Then this compound:
What does the record list as inhibition for COc1ccc2c(c1OC)C(=O)OC2Nc1nc(-c2ccccc2)cs1 (stereo unspecified) ? 105

###

Experiment: caspase-8 TRAIL sensitization, hit retest, confirmation, cell-based, NB7+caspase-8, with/without TRAIL, luminescence panel (AID 651596)
Settings: NB7 neuroblastoma + caspase-8, without TRAIL, luminescence viability, without TRAIL, mean of runs, at 10 µM
As shown below, each of these molecules has a reported activity value.
// units = %; emit number, no label

Look over these answered cases.
molecule: CC(=O)Nc1ccc(NC2=Nc3ccccc3N3C2=Nc2c(c(C)nn2-c2ccccc2)C3c2ccccc2)cc1 (stereo not given)
units_label: %
activity: 73.6
//
molecule: Cc1nn(-c2ccccc2)c(Cl)c1/C=N/NC(=O)c1nn(C)cc1[N+](=O)[O-]
units_label: %
activity: 46.5

What does the record list as activity for O=C(NCCc1ccccc1)C(c1cccs1)N(C(=O)CCl)c1ccc(Cl)cc1 (stereo not given) ? 99.5

What does the record list as activity for CN(Cc1ccccc1)C(=O)c1ccc(Nc2nc(C(N)Cc3ccc(C(F)(F)F)cc3)cs2)nc1 (stereo not given) ? 98.2

What does the record list as activity for CCN(CC(=O)N1CCc2ccccc2C1)S(=O)(=O)c1ccc2ccccc2c1 ? 62.5

What does the record list as activity for Cc1nc(Cl)c2oc3ccccc3c2n1 ? 31.1

What does the record list as activity for O=C(Nc1ccc2c(c1)OCCO2)c1ccccn1 ? 69.1

What does the record list as activity for N/C(=N\OC(=O)c1cccc(Br)c1)c1ccc(Br)cc1 ? 90.1

What does the record list as activity for N/C(Cc1ccc(Cl)cc1)=N\OC(=O)c1cccc2ccccc12 ? 97.5

What does the record list as activity for N#CC(C#N)=C1SC(=Nc2ccccc2)C(=Nc2ccccc2)N1c1ccccc1 ? 83.6

###

Tested on: Rat fibroblasts (CREF)
Test: Peg3 promoter luciferase inhibitors, potency, dose response, cell-based, HeLa, CREF/GAPDH counter-screen panel (AID 624167)
Settings: CREF/GAPDH counter-screens; run 1, dose range 1, at 100 µM (top of the series)
observation_type: inhibition (%)
// units = %; emit number, no label

Look over these answered cases.
molecule: CN1OC[C@@H]2CN(S(=O)(=O)c3cccc(C(F)(F)F)c3)[C@H](c3ccc(-c4cc5ccccc5o4)cc3)C[C@@H]21
inhibition, %: 17
//
molecule: CC(C)Cc1ccc(C(C)C(N)=NCCc2ccccc2)cc1 (stereo not given)
inhibition, %: 100
//
molecule: COc1ccc(NC(=O)c2cc(-c3ccccn3)nc3ccccc23)cc1S(=O)(=O)N(C)C
inhibition, %: -4.8
//
molecule: CC1CC(C)C(=O)C(C(CC2CC(=O)NC(=O)C2)OC(=O)CC(=O)c2ccccc2)C1 (stereo not given)
inhibition, %: 44.6

Then this molecule:
What does the record list as inhibition for CC(=O)NC(c1ccc(Cl)cc1)c1ccc2cccnc2c1O (stereo not given) ? 4.58

###

Biological target: Tumor necrosis factor receptor superfamily member 10B (Homo sapiens)
Test: caspase-8 TRAIL sensitization, hit retest, confirmation, cell-based, NB7+caspase-8, with/without TRAIL, luminescence panel (AID 651596)
Conditions: NB7 neuroblastoma + caspase-8, TRAIL sensitization, luminescence viability, with TRAIL, mean of runs, at 10 µM, stronger effect = higher value
As shown below, each of these compounds has a reported activity value.

Look over these answered cases.
compound: CCSc1ccc(-c2cc(NC=O)c3ncc(-c4cccc(C(=O)NCCN(C)C)c4)n3c2)cc1
activity: 50.4%
//
compound: COc1cc(NC(=O)c2[nH]cnc2C(N)=O)cc(C(=O)Nc2cccc(C(F)(F)F)c2)c1
activity: 86.1%
//
compound: CCc1cc2c(COC(=O)CCNS(=O)(=O)c3cccc(C(F)(F)F)c3)cc(=O)oc2cc1O
activity: 23.9%

Then this compound:
What does the record list as activity for CCOc1cccc(C(=O)Nc2ccc3[nH]ncc3c2)c1 ? 61%

###

As shown below, each of these compounds has a reported inhibition value.
Assay: PMA/ionomycin-induced NF-kB reporter inhibitors, Jurkat retest, confirmation, T-cell NF-kB inhibitor project, cell-based, luminescence, single concentration (AID 435020);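 further: plate controls were PMA/ionomycin stimulated DMSO wells for no effect and unstimulated DMSO wells for full effect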
Details: Jurkat NF-kB luciferase, 16 h, at 4 µM, stronger effect = higher value
The other results are listed elsewhere or left out. Active and inactive are the calls of the source.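 How the source made its calls: active means inhibition reaching about 45% at 4 µM in either replicate (limit read from the data); inactive means the rest.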

compound: C=CCn1c(SCc2c(C)noc2C)nc2sc3c(c2c1=O)CCC(C)C3 (stereo unspecified)
data_value: 27.9% (inactive)

compound: CCOc1ccccc1NC(=O)Cn1nnc(C(=O)NCc2cccs2)c1N
data_value: 51.6% (active)

What does the record list as inhibition for CCCOc1ccccc1C1CC(=O)Nc2cc3c(cc21)OCO3 (stereo unspecified) ? 62% (active)

What does the record list as inhibition for CCCC(=O)Nc1nc2ccc(NC(=O)c3c(F)c(F)c(OC)c(F)c3F)cc2s1 ? 40.9% (active)

What does the record list as inhibition for N/C(=N\OC(=O)N1c2ccccc2Sc2ccccc21)c1ccc(Br)cc1 ? 6.45% (inactive)

What does the record list as inhibition for COc1ccccc1C1C2=C(COC2=O)Nc2cc3c(cc21)OCO3 (stereo unspecified) ? 23.4% (inactive)

What does the record list as inhibition for Cc1ccc(N2CCN(c3ccc([N+](=O)[O-])cn3)CC2)c(C)c1 ? 15.2% (inactive)

What does the record list as inhibition for O=C(c1ccc(F)cc1)n1c(=S)nc2ccccn21 ? -90.8% (inactive)

What does the record list as inhibition for CC[n+]1cc(C)ccc1/C=C/c1ccc(N(C)C)cc1 ? 46% (inactive)

What does the record list as inhibition for COc1ccccc1N1CCN(C(=O)c2cc(=O)c3cc(C)cc(C)c3o2)CC1 ? 54% (active)

What does the record list as inhibition for O=c1cc(-c2ccccc2)[nH]c2cc(F)ccc12 ? 46% (inactive)

###

Test: inhibition of Brca1/Bard1 split-luciferase complementation, confirmation, counter-screen for Mdm2/MdmX interaction inhibitor project, luminescence, single concentration (AID 504668)
Settings: Brca1/Bard1 bimolecular luciferase complementation counterscreen, at 8 µM, stronger effect = higher value
observation_type: inhibition (%)
// units = %; emit number, no label

Look over these answered cases.
compound: O=C(CCCN1C(=O)/C(=C/c2cccc(Br)c2)SC1=S)Nc1ccccn1
inhibition [%]: 31
//
compound: CCN(CC)S(=O)(=O)c1ccc(NC(=O)Nc2cccc(C(F)(F)F)c2)cc1
inhibition [%]: 35.2
//
compound: CC(C)(C)Nc1nc(-c2ccccn2)nc2ccccc12
inhibition [%]: 23.3

What does the record list as inhibition for Cc1csc2nc(O)c(C(=O)NC3CCCCC3)c(=O)n12 ? 35

What does the record list as inhibition for NC(N)=N/N=C/c1ccc(OCc2ccccc2Cl)cc1 ? 32.5

What does the record list as inhibition for C=CCc1cccc(/C=N/NC(=O)c2ccc3nc[nH]c3c2)c1O ? 26.2
